Target: T1, BCMA-His (human, UniProt Q02223 1-54)
T1 construct: coating antigen, 1 ug/mL; also called His-conjugated human BCMA; not shown: His tag
T1 sequence (looked up): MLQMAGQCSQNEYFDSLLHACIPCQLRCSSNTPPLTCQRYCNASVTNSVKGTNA
Experiment: ELISA, BCMA-His coated 1 ug/mL
property: OD450 (OD450)
Respond numerically; units are OD450 and should not be typed.

Recorded results for 6 binders are shown here.
NBL507-A1L1-P1R2-1B8-(44)-PME207-SEQF_D06 (VHH, purified VHH) VHH: QVQLVESGGGLVQPEGSLRLSCAASGSIFSIYAMGWYRQAPGKQRGLVAAITSGGDTFYADSVKGRFTISRDNARNTVYLQMNNLKSEDTAVYDCNGAPWGDHAPLVASWGQGTQVTVSS = 2.27
NBL507-A2L1-P1R2-1C1-(273)-PME207-SEQF_E11 (VHH, purified VHH) VHH: QVQLVESGGGLVHPGGSLRLDCAVSERIASFNVMGWYRQAPGQQREVVATITSVGRTYYADSVKGRFTIAKDNDKNTYLQMNSLKPEDTAVYYCKAVIVGTYDTEYWGQGTLVTVSS = 2.28
NBL507-A1L1-P1R2-1B6-(31)-PME207-SEQF_G04 (VHH, purified VHH) VHH: QVQLVESGGGLVQPGGSLRLSCAASGFTFSPSAMSWARQAPGKGLEWVSGIYSDGSTYYRDSVKGRFTISRDNARNMVYLQMNSLKPEDTAVYYCALGAMREGVYSDLLGQGTQVTVSS = 2.25
NBL507-A1L1-P1R2-1E2-(10)-PME207-SEQF_B02 (VHH, purified VHH) VHH: EVQLVESGGGLVQPGGSLRLSCAASGSISSIYAMGWYRQAPGKLRELVAAITTGGSTFYRDSVKGRFTISRDNVANTVYLQMNSLKPEDTAVYHCNGAPWGDIAPVAVSWGQGTQVTVSS = 2.37
NBL507-A1L1-P1R2-1D2-(9)-PME207-SEQF_A02 (VHH, purified VHH) VHH: QVQLVESGGGLVQPGGSLRLSCAASGFTFSSSAMSWARQAPGKGLECVSDIYPDGTSSYADSMKGRFTISRDNTRNTMYLQMNVLKPEDTATYYCVIGRGGYAMGDRRLRGQGTQVTVSS = 2.32
NBL507-A2L1-P1R2-1H1-(275)-PME207-SEQF_G11 (VHH, purified VHH) VHH: QVQLVESGGGLVHPGGSLRLACAASERILSFNVMGWYRQAPGQQREVVATITSVGRTYYADSVKGRFTIFKDNGKNTYLQMSSLKPEDTAVYYCKAVTVGDVDTEYWGQGTQVTVSS = 2.11

# input for lookup
Q: Consider the binder shown here: NBL507-A1L1-P1R2-1A1-(1)-PME207-SEQF_A01 (VHH, purified VHH; also called lAl) VHH: EVQLVESGGGLVQPGGSLRLSCAASGFTFRSSAMSWARQAPGKGLEWVSDIYPDGRTDYADSIKGRFTMSRDNAKNTVYLLMDSLKPEDTAVYHCQVGRYVSGVYYQPRGQGTQVTVSS What is its recorded OD450?
Ans: 2.37

The values you see were collected from patent US20230002757A1.
